measurement.protocol: yeast display, Sf9 membrane polyspecificity reagent, FACS + sequencing; frameworks hold sequencing errors
result.type: polyreactivity (PSR sort gate)

[[record]]
residue_codes = "QVQLVETGGGLVQAGGSLRLRGAASGSTNYNYAMGWYRQAPGKERELVAAISISGGSPYYADSVKGRFTISRDNANNTVYLQMYSLKAEDTAVYYCAAVRLGSRGGYCGQGTQVTVSS"
result_type = "polyreactivity (PSR sort gate)"
measured_result = "high polyreactivity"

[[record]]
residue_codes = "QVQLVESGGGLVQAGGSLRLSCAASGRIFAKYAMGWYRQAPGKERELVAAISWGGGSTYYADSVKGRFTISRDNAKNTVYLQMNSLKPEDTAVYYCARRFKYGSTAWRFYYWGQGTQVTVSS"
result_type = "polyreactivity (PSR sort gate)"
measured_result = "high polyreactivity"

[[record]]
residue_codes = "QVQLVESGGGLVQAGGSHRLSCAASGGTFDDYALGWYRQAPGKERELVAAISSSGGSTYYADSVKGRFTISRDNAKNTVYLQMNSLKPEDTAVYYCAVDAYWRLWYYPYESHHDYWGQGTQVTVSS"
result_type = "polyreactivity (PSR sort gate)"
measured_result = "low polyreactivity"

[[record]]
residue_codes = "QVQLVESGGGLVQAGGSLRLSCAASGRTFGRNAMGWYRQAPGKERELVAAISTSGSRTYYADSVKGRFTISRDNAKNTVYLQMNSLKPEDTAVYYCNAYGVSRGSYGTRGYWGQGTQVTVSS"
result_type = "polyreactivity (PSR sort gate)"
measured_result = "high polyreactivity"

[[record]]
residue_codes = "QVQLVESGGGLVQAGGSLRLSCAASGRIFGRYAMGWYRQAPGKERELVAAISRRGGTTYYADSVKGRFTISRDNAKNTVYLQMNSLKPEDTAVYSSNADTYGYGFDYWGQGTQVTVSS"
result_type = "polyreactivity (PSR sort gate)"
measured_result = "high polyreactivity"

[[record]]
residue_codes = "QVQQPESGGGLVQAGGSLRLSCAASGTIFQLTVMGRSRQAPGKERELVASIDYGGNPNYADSVKGRFTISRDNAKNTVYLQMNCLKPEDTAVYYCAASSDSWTTHPYWGQGTQVTVSS"
result_type = "polyreactivity (PSR sort gate)"
measured_result = "low polyreactivity"

[[record]]
residue_codes = "QVQLVESGGGLVQAGGSLRLSCAASGSTFRNYSMGWYRQAPGKERELVAAISGSGGRTNYADSVKGRFTISRDNAKNTVYLQMNSLKPEDTAVYYCNADGGPGYPRAYDYWGQGTQVTVSS"
result_type = "polyreactivity (PSR sort gate)"
measured_result = "low polyreactivity"

[[record]]
residue_codes = "QVQLVESGGGLVQAGGSLRLSCAASGSTFRSYAMGWYRQAPGKERELVAAISSTGGSTYYADSVKCRFTISRDTAKNTVYFQMNSLKPVDTAVYYCAADFLYYEYDYWGQGTQVTVSS"
result_type = "polyreactivity (PSR sort gate)"
measured_result = "low polyreactivity"

[[record]]
residue_codes = "QVQLVESGGGLVQAGGSLRLSCAASGITLDYYAMGWYRQAPGKERELVASITSGGSTNYADSVKGRFTISRDNAKNTVYLQMNSLKPVDTAVYYCARDVNYPGSEGDYWGQGTQVTVSS"
result_type = "polyreactivity (PSR sort gate)"
measured_result = "low polyreactivity"

[[record]]
residue_codes = "QVQLVESGGGLVQAGGSLRLSCAASGRIFDYYTMGWYRQAPGKESELVAAITKSGGSTYYADSVKGRFTISRDNAKNTVFLLMNILKPEDTAVYYCAAVTYDYYWFGDIEDDFWGQGTQVTVSS"
result_type = "polyreactivity (PSR sort gate)"
measured_result = "low polyreactivity"

[[record]]
residue_codes = "QVQLVESGGGLVQAGGSLRLSCAASGFTFGRYAMGWYRQAPGKERELVAGITWSGGSTSYADSVKGRFTISRDNAKNTVYLQMNSLKPEDTAVYYCATRARYTRVHGRRYAYDYWGQGTQVTVSS"
result_type = "polyreactivity (PSR sort gate)"
measured_result = "high polyreactivity"

